Sourced from patent US6114371A

# tested on: EGFr (Homo sapiens, UniProt P00533)
# Sequence (P00533 25-1210): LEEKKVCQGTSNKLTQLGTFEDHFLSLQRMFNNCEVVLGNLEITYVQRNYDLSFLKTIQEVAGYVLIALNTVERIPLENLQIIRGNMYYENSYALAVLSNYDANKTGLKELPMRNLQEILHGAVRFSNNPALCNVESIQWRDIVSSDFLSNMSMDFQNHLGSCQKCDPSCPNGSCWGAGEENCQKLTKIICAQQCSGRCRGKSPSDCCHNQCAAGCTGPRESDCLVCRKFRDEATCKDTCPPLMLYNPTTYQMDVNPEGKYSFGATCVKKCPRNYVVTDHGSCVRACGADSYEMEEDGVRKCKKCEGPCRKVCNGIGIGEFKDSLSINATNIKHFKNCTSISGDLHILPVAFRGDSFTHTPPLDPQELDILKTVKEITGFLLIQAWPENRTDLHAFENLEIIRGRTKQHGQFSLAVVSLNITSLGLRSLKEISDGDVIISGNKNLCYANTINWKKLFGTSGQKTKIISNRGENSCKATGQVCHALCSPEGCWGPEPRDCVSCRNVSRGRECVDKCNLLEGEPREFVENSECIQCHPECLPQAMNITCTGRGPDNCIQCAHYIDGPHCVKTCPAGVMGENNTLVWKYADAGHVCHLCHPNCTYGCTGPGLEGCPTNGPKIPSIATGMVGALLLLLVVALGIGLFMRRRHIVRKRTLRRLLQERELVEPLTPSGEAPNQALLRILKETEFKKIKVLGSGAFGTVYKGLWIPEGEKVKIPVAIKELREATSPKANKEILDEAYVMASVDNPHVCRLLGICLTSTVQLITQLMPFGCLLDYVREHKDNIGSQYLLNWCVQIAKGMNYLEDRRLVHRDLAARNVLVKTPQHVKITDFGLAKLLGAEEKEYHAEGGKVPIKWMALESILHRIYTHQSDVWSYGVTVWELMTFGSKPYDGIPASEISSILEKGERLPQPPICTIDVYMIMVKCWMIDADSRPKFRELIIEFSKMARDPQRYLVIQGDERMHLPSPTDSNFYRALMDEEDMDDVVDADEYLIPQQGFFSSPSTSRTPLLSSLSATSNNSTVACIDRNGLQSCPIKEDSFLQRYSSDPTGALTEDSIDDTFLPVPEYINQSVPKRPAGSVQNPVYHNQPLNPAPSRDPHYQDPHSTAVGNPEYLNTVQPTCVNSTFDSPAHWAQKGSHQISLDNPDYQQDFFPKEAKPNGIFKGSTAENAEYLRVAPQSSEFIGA
# experimental details: EGF receptor ELISA
# Format: cell-based
# Parameters: expressed in transfected cells; host or cells: NIH 3T3/C7
# condition label: Table 2; read-out: EGFR IC50
value type: IC50

Ask: Report measured IC50; entry is NS(=O)(=O)c1ccc2c(c1)C(=Cc1cc3c([nH]1)CCCC3)C(=O)N2
Result: > 100 µM

----------
Please provide measured pIC50 for the entries that follow.
# tested on: PDGFr (Homo sapiens, UniProt P09619)
# Sequence (P09619 33-1106): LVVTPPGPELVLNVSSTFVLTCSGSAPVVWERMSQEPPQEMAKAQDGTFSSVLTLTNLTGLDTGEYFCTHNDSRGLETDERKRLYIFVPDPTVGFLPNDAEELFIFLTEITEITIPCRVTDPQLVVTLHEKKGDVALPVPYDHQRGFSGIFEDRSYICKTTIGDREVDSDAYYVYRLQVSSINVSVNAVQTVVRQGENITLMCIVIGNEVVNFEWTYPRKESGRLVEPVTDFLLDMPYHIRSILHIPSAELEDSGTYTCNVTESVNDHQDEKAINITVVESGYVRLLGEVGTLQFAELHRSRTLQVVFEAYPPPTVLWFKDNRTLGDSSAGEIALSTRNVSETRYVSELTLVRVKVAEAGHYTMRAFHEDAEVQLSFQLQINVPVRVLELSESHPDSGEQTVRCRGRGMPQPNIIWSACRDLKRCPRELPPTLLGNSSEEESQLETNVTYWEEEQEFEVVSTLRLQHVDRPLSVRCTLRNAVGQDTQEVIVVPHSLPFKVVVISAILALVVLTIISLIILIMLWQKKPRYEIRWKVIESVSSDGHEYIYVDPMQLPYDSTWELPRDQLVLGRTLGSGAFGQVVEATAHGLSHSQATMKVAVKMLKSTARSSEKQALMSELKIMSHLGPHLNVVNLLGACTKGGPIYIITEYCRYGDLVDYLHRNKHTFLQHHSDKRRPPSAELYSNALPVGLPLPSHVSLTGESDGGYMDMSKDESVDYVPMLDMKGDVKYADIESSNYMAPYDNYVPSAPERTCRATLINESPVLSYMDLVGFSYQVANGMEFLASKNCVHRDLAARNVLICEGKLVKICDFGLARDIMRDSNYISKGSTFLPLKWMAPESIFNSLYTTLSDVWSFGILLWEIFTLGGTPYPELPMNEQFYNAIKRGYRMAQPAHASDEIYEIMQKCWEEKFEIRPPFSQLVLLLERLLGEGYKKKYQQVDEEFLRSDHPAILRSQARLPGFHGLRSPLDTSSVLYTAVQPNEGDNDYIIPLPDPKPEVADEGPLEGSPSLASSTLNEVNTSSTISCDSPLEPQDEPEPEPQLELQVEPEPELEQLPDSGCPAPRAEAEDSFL
# experimental details: PDGF-induced BrdU incorporation assay
# Assay type: cell-based
# Parameters: expressed in transfected cells; host or cells: 3T3 cell line
# condition label: Table 8; BrdU incorporation, 3.8 nM PDGF; read-out: PDGFr IC50
pIC50: −log10 of the molar value.

Ask: Report measured pIC50; entry is CC(=O)c1ccc2c(c1)C(=Cc1cc3c([nH]1)CCCC3)C(=O)N2
Result: < 7.15

Ask: Report measured pIC50; entry is COc1ccc(-c2ccc3c(c2)NC(=O)C3=Cc2[nH]c3c(c2C)CCCC3)cc1
Result: < 4.30

Ask: Report measured pIC50; entry is O=C1Nc2cc(O)ccc2C1=Cc1cc2c([nH]1)CCCC2
Result: 6.29

Ask: Report measured pIC50; entry is O=C1Nc2cc(-c3ccccc3)ccc2C1=Cc1cc2c([nH]1)CCCC2
Result: < 4.30

Ask: Report measured pIC50; entry is CCOc1cccc(-c2ccc3c(c2)NC(=O)C3=Cc2cc3c([nH]2)CCCC3)c1
Result: < 4.30

Ask: Report measured pIC50; entry is COc1ccccc1-c1ccc2c(c1)NC(=O)C2=Cc1[nH]c2c(c1C)CCCC2
Result: < 4.30

Ask: Report measured pIC50; entry is COc1cccc(-c2ccc3c(c2)NC(=O)C3=Cc2cc3c([nH]2)CCCC3)c1
Result: < 4.30

----------
# Test system: HUV-EC-C cells
# experimental details: HUV-EC-C assay, aFGF (3H-thymidine incorporation)
# Assay type: cell-based, human
# condition label: Homo sapiens, Table 2; aFGF-stimulated HUV-EC-C; read-out: HUV-EC-C ATCC aFGF IC50
value type: IC50 (nM)
Number only, in nM; omit the unit.

Ask: Report measured IC50; entry is NS(=O)(=O)c1ccc2c(c1)C(=Cc1cc3c([nH]1)CCCC3)C(=O)N2
Result: 2400

----------
Please provide measured IC50 for the entries that follow.
# Test system: FGFr
# experimental details: FGF-induced BrdU incorporation assay
# Format: cell-based
# condition label: Table 8

Ask: Report measured IC50; entry is COc1cccc(-c2ccc3c(c2)NC(=O)C3=Cc2cc3c([nH]2)CCCC3)c1
Result: > 50 µM

Ask: Report measured IC50; entry is CC(=O)c1ccc2c(c1)C(=Cc1cc3c([nH]1)CCCC3)C(=O)N2
Result: > 50 µM

Ask: Report measured IC50; entry is COc1ccc2c(c1)NC(=O)C2=Cc1cc2c([nH]1)CCCC2
Result: > 50 µM

Ask: Report measured IC50; entry is O=C1Nc2cc(O)ccc2C1=Cc1cc2c([nH]1)CCCC2
Result: 6.21 µM

----------
Please provide measured IC50 for the entries that follow.
# tested on: FLK-1 receptor (Mus musculus)
# Construct: expressed in transfected cells; host or cells: NIH3T3 C7#3 cells
# Sequence (P35918 20-1345): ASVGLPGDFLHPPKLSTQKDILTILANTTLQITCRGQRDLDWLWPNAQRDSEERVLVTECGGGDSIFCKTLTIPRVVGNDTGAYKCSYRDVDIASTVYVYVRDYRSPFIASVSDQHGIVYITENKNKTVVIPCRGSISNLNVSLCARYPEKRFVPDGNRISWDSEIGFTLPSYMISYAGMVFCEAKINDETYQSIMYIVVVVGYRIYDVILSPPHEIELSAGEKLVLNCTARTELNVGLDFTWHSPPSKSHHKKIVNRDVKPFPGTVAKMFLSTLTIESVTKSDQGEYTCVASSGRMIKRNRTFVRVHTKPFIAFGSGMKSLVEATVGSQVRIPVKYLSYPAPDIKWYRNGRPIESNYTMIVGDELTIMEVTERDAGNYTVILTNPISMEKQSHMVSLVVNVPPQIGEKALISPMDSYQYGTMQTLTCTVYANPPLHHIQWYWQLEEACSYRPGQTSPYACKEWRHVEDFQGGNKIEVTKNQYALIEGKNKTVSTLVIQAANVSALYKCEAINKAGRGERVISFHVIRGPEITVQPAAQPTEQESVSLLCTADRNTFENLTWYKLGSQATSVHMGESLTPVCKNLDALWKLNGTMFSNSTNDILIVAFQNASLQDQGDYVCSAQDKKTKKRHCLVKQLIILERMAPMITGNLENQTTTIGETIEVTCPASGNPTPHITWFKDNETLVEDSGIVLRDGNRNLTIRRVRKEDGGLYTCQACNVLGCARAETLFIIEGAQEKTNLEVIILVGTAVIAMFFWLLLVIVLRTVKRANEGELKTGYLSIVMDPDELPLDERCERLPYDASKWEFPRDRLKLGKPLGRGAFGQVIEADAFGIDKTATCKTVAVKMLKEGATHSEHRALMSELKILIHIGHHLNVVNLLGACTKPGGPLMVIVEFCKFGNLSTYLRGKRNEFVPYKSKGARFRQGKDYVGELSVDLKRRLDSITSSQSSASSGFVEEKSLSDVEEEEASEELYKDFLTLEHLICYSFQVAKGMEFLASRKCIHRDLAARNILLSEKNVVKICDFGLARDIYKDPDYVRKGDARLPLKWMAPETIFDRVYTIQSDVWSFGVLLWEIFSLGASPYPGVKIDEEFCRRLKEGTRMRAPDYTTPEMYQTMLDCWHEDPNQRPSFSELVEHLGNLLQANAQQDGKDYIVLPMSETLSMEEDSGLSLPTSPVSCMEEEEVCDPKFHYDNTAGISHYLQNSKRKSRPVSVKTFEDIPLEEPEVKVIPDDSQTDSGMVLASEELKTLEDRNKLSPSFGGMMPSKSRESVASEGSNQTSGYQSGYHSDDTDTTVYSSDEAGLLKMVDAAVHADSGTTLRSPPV
# experimental details: FLK-1 ELISA (kinase activity of the FLK-1 receptor in engineered cells)
# Type: cell-based
# condition label: Table 3; VEGF-stimulated NIH3T3 C7#3 cells; read-out: FLK-1 IC50

Ask: Report measured IC50; entry is COc1cccc(-c2ccc3c(c2)NC(=O)C3=Cc2cc3c([nH]2)CCCC3)c1
Result: > 20 µM

Ask: Report measured IC50; entry is Cc1cc(Br)c2c(c1)C(=Cc1cc3c([nH]1)CCCC3)C(=O)N2
Result: > 2.5 µM

Ask: Report measured IC50; entry is COc1cccc(-c2ccc3c(c2)NC(=O)C3=Cc2[nH]c3c(c2C)CCCC3)c1
Result: > 5 µM

----------
# tested on: PDGFr (Homo sapiens, UniProt P09619)
# experimental details: PDGF-R ELISA
# Format: cell-based
# Design: cells (U1242, obtained from Joseph Schlessinger, NYU); endogenous in cells; host or cells: U1242
# condition label: Table 4; ligand-stimulated U1242 cells; read-out: PDGF-R IC50
Please provide measured pIC50 for the entries that follow.
Notebook: values listed as pIC50 are -log10 of the concentration (mol/L).

Ask: Report measured pIC50; entry is Cc1cc(Br)c2c(c1)C(=Cc1cc3c([nH]1)CCCC3)C(=O)N2
Result: 5.25

Ask: Report measured pIC50; entry is COc1cccc(-c2ccc3c(c2)NC(=O)C3=Cc2[nH]c3c(c2C)CCCC3)c1
Result: 5.23

Ask: Report measured pIC50; entry is COc1ccccc1-c1ccc2c(c1)NC(=O)C2=Cc1[nH]c2c(c1C)CCCC2
Result: 4.02

----------
# tested on: PDGFr (Homo sapiens, UniProt P09619)
# experimental details: PDGF-R ELISA
# Assay type: cell-based
# Parameters: cells (U1242, obtained from Joseph Schlessinger, NYU); endogenous in cells; host or cells: U1242
# condition label: Table 4; ligand-stimulated U1242 cells; read-out: PDGF-R IC50
Please provide measured IC50 for the entries that follow.

Ask: Report measured IC50; entry is O=C1Nc2cc(Cl)ccc2C1=Cc1cc2c([nH]1)CCCC2
Result: > 100 µM

Ask: Report measured IC50; entry is CCOc1cccc(-c2ccc3c(c2)NC(=O)C3=Cc2cc3c([nH]2)CCCC3)c1
Result: > 100 µM

Ask: Report measured IC50; entry is COc1cccc(-c2ccc3c(c2)NC(=O)C3=Cc2cc3c([nH]2)CCCC3)c1
Result: > 100 µM
